target: T1, HER3 extracellular domain (ECD) (R&D Systems) (human, UniProt P21860 20-643); experiment: phage binding to HER3, normalized to parent phage
T1 construct: extracellular domain; Adsorbed to Maxisorp plates in the ELISAs; also called HER3 ECD; ERBB3
T1 sequence (P21860 20-643): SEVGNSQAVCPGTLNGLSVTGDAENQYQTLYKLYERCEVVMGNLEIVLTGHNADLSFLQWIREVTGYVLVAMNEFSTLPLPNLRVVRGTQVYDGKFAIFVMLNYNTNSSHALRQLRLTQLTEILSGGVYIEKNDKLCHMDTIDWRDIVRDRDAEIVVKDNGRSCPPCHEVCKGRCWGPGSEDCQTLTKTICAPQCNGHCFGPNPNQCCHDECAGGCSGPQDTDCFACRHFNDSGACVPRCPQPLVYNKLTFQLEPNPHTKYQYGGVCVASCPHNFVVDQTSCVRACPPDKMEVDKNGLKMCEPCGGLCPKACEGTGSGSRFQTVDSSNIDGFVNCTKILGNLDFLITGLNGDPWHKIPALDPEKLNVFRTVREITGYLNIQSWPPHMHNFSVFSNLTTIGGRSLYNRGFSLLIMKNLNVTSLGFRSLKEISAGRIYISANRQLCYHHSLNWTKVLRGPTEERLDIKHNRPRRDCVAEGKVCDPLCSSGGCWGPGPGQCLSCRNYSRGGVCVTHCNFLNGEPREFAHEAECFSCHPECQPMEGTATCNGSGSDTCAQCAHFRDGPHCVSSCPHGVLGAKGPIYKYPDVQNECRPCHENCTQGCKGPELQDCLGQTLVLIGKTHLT
REPORTED_PROPERTY: decrease of binding against parent (HER3P1) phage

CAPTKFRSC (peptide, not shown: large carriers) [phage M1 (alanine mutant at position 2 of the HER3P1 binding sequence)] = ≥ 50%
CLATKFRSC (peptide, not shown: large carriers) [phage M2 (alanine mutant at position 3 of the HER3P1 binding sequence)] = ≥ 50%
CLPAKFRSC (peptide, not shown: large carriers) [phage M3 (alanine mutant at position 4 of the HER3P1 binding sequence)] = ≥ 50%
CLPTKFRAC (peptide, not shown: large carriers) [phage M7 (alanine mutant at position 8 of the HER3P1 binding sequence)] = ≥ 50%

Endpoint output: decrease of binding against parent (HER3P1) phage of CLPTKFASC (peptide, not shown: large carriers) [phage M6 (alanine mutant at position 7 of the HER3P1 binding sequence)] . Value?
≥ 50%
